The values you see were collected from paper PMC10244618.

B1: NF2 (merlin) isoform 7, human, full length (507 aa, lacks exons 2-3 = isoform-1 residues 39-121; exon-16 C-terminus), P35240-4 (parent)
chain: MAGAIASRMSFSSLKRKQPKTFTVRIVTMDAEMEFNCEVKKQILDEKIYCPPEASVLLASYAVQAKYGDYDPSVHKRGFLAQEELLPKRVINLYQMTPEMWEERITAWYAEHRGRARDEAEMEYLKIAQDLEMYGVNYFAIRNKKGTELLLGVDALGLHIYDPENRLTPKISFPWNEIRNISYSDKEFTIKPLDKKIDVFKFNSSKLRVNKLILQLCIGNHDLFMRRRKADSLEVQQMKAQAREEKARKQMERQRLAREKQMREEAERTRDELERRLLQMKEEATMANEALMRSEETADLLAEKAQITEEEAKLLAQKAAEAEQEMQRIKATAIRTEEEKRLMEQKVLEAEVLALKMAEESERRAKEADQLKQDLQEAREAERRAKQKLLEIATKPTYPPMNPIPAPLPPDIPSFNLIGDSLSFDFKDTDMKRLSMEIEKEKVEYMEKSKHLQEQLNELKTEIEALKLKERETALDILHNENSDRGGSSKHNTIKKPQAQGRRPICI

Variants of: B1
Experiment: reverse yeast two-hybrid deep mutational scan (rY2H-seq): NF2 isoform 7 mutant library as bait mated with wild-type prey strains; selection on medium lacking adenine for non-interacting pairs; NextSeq paired-end sequencing; enrichment vs …
Conditions: with EMILIN1 (elastin microfibril interfacer 1), Q9Y6C2; yeast diploids after mating (RBait_S3 x RPrey_S3), 30 °C, selection for reporter genes on NB agar; human ABL2 co-expressed as the kinase-dead K35M mutant …; HIGHER = WEAKER BINDING (the opposite of display enrichments): higher = stronger loss of interaction: reverse Y2H selects yeast in which bait and prey do NOT interact (growth without adenine), so a …; hits-only table; scale: rY2H score; numbering: uniprot, sequence starts at 1
Below is a list of entries, each paired with its recorded enrichment value.

[
  {
    "Mutant id": "R328E",
    "enrichment": 2.55
  },
  {
    "Mutant id": "E338R",
    "enrichment": 2.37
  },
  {
    "Mutant id": "Q387L",
    "enrichment": 1.46
  },
  {
    "Mutant id": "L348S",
    "enrichment": 3.01
  },
  {
    "Mutant id": "L390W",
    "enrichment": 1.53
  },
  {
    "Mutant id": "L291P",
    "enrichment": 1.99
  },
  {
    "Mutant id": "R268P",
    "enrichment": 1.95
  },
  {
    "Mutant id": "Q327Y",
    "enrichment": 2.5
  },
  {
    "Mutant id": "L158E",
    "enrichment": 4.99
  },
  {
    "Mutant id": "L57E",
    "enrichment": 1.73
  },
  {
    "Mutant id": "I334T",
    "enrichment": 1.75
  },
  {
    "Mutant id": "A385K",
    "enrichment": 1.6
  },
  {
    "Mutant id": "E337T",
    "enrichment": 5.26
  },
  {
    "Mutant id": "A298K",
    "enrichment": 1.79
  },
  {
    "Mutant id": "P174T",
    "enrichment": 2.95
  },
  {
    "Mutant id": "R226G",
    "enrichment": 1.63
  },
  {
    "Mutant id": "T308D",
    "enrichment": 4.89
  },
  {
    "Mutant id": "D484L",
    "enrichment": 2.38
  },
  {
    "Mutant id": "M343K",
    "enrichment": 3.5
  },
  {
    "Mutant id": "E360K",
    "enrichment": 3.02
  },
  {
    "Mutant id": "K427T",
    "enrichment": 2.98
  },
  {
    "Mutant id": "K211I",
    "enrichment": 3.12
  },
  {
    "Mutant id": "K170R",
    "enrichment": 2.58
  },
  {
    "Mutant id": "I329L",
    "enrichment": 3
  },
  {
    "Mutant id": "E339T",
    "enrichment": 3.93
  },
  {
    "Mutant id": "M280E",
    "enrichment": 2.68
  },
  {
    "Mutant id": "A350K",
    "enrichment": 1.95
  },
  {
    "Mutant id": "R208C",
    "enrichment": 2.09
  },
  {
    "Mutant id": "L158K",
    "enrichment": 2.72
  },
  {
    "Mutant id": "L151S",
    "enrichment": 3.66
  },
  {
    "Mutant id": "M357K",
    "enrichment": 2.48
  },
  {
    "Mutant id": "D374K",
    "enrichment": 2.38
  },
  {
    "Mutant id": "D411K",
    "enrichment": 2.21
  },
  {
    "Mutant id": "L353W",
    "enrichment": 1.51
  },
  {
    "Mutant id": "R364E",
    "enrichment": 1.5
  },
  {
    "Mutant id": "D484A",
    "enrichment": 2.01
  },
  {
    "Mutant id": "Q345T",
    "enrichment": 23.4
  }
]
